Biological target: Sec7-6His recombinant protein (human) (UniProt Q99418)
Sequence (Q99418 61-252): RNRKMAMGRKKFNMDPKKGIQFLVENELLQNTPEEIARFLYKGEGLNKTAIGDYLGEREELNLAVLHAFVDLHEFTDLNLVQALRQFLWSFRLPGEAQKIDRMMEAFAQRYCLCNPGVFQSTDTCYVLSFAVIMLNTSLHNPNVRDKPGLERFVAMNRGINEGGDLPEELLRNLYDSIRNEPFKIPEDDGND
Test: SPR (BIAcore T100), biotinylated a2N-01 captured on neutravidin, Sec7-6His as analyte, 1:1 fit
Ends that are not written are not given here. * marks the point of attachment. Biotin = O=C1N[C@H]2[C@H](CS[C@H]2CCCCC(=O)*)N1
recorded-endpoint: Kd (nM)
// note: answer is a bare numeric in nM

## Input Given Biotin-MGSLFRSESMCLAQLFLC (cysteine pairing not given here, Synthetic peptide from the mouse V-ATPase a2-subunit N-terminal tail; Bio- at N-terminus, extra Cys at C-terminus; also called a2N1-17; biotinylated a2N-01 peptide) [a2N-01] , respond with its Kd.
## Output 344
